These measurements were taken from PubChem BioAssay AID1963422.

System: 463943-066-T-J2-PDC complex spheroid growth
Assay: Anticancer human tumor 463943-066-T-J2-PDC patient-derived colon adenocarcinoma cell line growth inhibition [Asc]
Conditions: second compound 3 µM; first compound 0.01 µM; hits give low values
Text: Multicellular complex tumor spheroid response to apoptosis pathway targeting inhibitors Alrizomadlin, Pelcitoclax, and Dasminapant in combination with a variety of drugs and investigational agents in selected tumor cell lines […] Compounds. […] If the clinical Cmax for an agent had not been determined, the highest concentration tested was 10 microM. […]
So I've got a bunch of compounds here, and I need their viability, T/C values.
Value expressed in %; do not type the unit.

Exercise: What value of viability, T/C has been reported for the following compound? CNC(C)C(=O)NC1CN(S(=O)(=O)c2cccc(S(=O)(=O)N3CCC4CCC(C(=O)NC(c5ccccc5)c5ccccc5)N4C(=O)C(NC(=O)C(C)NC)C3)c2)CCC2CCC(C(=O)NC(c3ccccc3)c3ccccc3)N2C1=O (stereo unspecified) + CCN1C(C(=O)NC23CCC(C(=O)O)(CC2)CC3)C(c2cccc(Cl)c2F)C2(C(=O)Nc3cc(Cl)ccc32)C12CCCCC2
Key: 73.2

Exercise: Further, for Cn1ncnc1[C@H]1c2n[nH]c(=O)c3cc(F)cc(c23)N[C@@H]1c1ccc(F)cc1 + CCN1C(C(=O)NC23CCC(C(=O)O)(CC2)CC3)C(c2cccc(Cl)c2F)C2(C(=O)Nc3cc(Cl)ccc32)C12CCCCC2 ?
Key: 67.4

Exercise: Now the same for COc1c(OCCCN2CCOCC2)ccc2c3n(c(=NC(=O)c4cnc(N)nc4)nc12)CCN3 + CCN1C(C(=O)NC23CCC(C(=O)O)(CC2)CC3)C(c2cccc(Cl)c2F)C2(C(=O)Nc3cc(Cl)ccc32)C12CCCCC2
Key: 64.4

Exercise: Repeat for the following compound: NC1CCC(NC2CC2c2ccccc2)CC1 (stereo unspecified) + CCN1C(C(=O)NC23CCC(C(=O)O)(CC2)CC3)C(c2cccc(Cl)c2F)C2(C(=O)Nc3cc(Cl)ccc32)C12CCCCC2
Key: 65.8

Exercise: // next record O=C(c1ccc(F)c(F)c1Nc1ccc(I)cc1F)N1CC(O)([C@@H]2CCCCN2)C1 + CCN1C(C(=O)NC23CCC(C(=O)O)(CC2)CC3)C(c2cccc(Cl)c2F)C2(C(=O)Nc3cc(Cl)ccc32)C12CCCCC2
Key: 55.7

Exercise: Cool, now CCN1CCN(Cc2ccc(Nc3ncc(F)c(-c4cc(F)c5nc(C)n(C(C)C)c5c4)n3)nc2)CC1 + CCN1C(C(=O)NC23CCC(C(=O)O)(CC2)CC3)C(c2cccc(Cl)c2F)C2(C(=O)Nc3cc(Cl)ccc32)C12CCCCC2
Key: 71.8

---

Tested on: 463943-066-T-J2-PDC complex spheroid growth
Assay: Anticancer human tumor 463943-066-T-J2-PDC cell line growth inhibition [Asc];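 also: compound exposure lasted 7 days; 100% = DMSO vehicle control wells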
Conditions: second compound 3 µM; first compound 3.16 µM; hits give low values
measured.parameter: viability, T/C (%)
The reply should be a number in %, with the unit left off.

Exercise: Requested field: viability, T/C. Item: C#Cc1c(F)ccc2cc(O)cc(-c3ncc4c(N5CC6CCC(C5)N6)nc(OCC56CCCN5CC(F)C6)nc4c3F)c12 (centres undefined) + CCN1C(C(=O)NC23CCC(C(=O)O)(CC2)CC3)C(c2cccc(Cl)c2F)C2(C(=O)Nc3cc(Cl)ccc32)C12CCCCC2
Key: 72.1

Exercise: Same for O=C(c1cc(Cc2n[nH]c(=O)c3ccccc23)ccc1F)N1CCN(C(=O)C2CC2)CC1 + CCN1C(C(=O)NC23CCC(C(=O)O)(CC2)CC3)C(c2cccc(Cl)c2F)C2(C(=O)Nc3cc(Cl)ccc32)C12CCCCC2
Key: 70.6

Exercise: Same read-out for C=CC(=O)N1CCN(c2nc(=O)n(-c3c(C)ccnc3C(C)C)c3nc(-c4c(O)cccc4F)c(F)cc23)C(C)C1 (centres undefined) + CCN1C(C(=O)NC23CCC(C(=O)O)(CC2)CC3)C(c2cccc(Cl)c2F)C2(C(=O)Nc3cc(Cl)ccc32)C12CCCCC2 ?
Key: 72.5

Exercise: What would you report for C=C(F)C(=O)N1CCN(c2nc(OCC3CCCN3C)nc3c2CCN(c2cccc4cccc(Cl)c24)C3)CC1CC#N (centres undefined) + CCN1C(C(=O)NC23CCC(C(=O)O)(CC2)CC3)C(c2cccc(Cl)c2F)C2(C(=O)Nc3cc(Cl)ccc32)C12CCCCC2 ?
Key: 77.5
